Tested On: HIV broadly neutralizing antibody 2G12
Assay Text: Radioactive 2G12-glycopeptide binding assay with protein G magnetic beads (binding curve and KD determination)
Run Parameters: Table 4; radiolabeled ribosomally translated glycopeptide, varied 2G12, room temperature; ± standard error of curve fit
pKd: −log10 of the molar value.
Recorded Metric: pKd

Request: Find the recorded pKd belonging to XYKNIPSTTXNLYSKPXATVTTLKCKLNGNRIS [Clone 12G] and report it.
Response: < 6.89
